A collection of compounds and their measured inhibition of growth at 30 µM
system: Staphylococcus aureus; experiment: Antibacterial activity against methicillin-resistant Staphylococcus aureus assessed as growth inhibition at 30 uM measured every 2 mins for 16 to 20 hrs by spectramax 96-well plate reader analysis; format: functional; details: read-out: GI

Would you please look over these solved cases?
{"COMPOUND": "O=C(O)C(Cc1ccccc1)N1C(=O)/C(=C\\c2ccc(-c3ccc(Br)c(Cl)c3)o2)NC1=S (stereo not drawn)", "inhibition of growth at 30 µM": "100%"}
{"COMPOUND": "O=C(O)C(Cc1ccccc1)N1C(=O)/C(=C\\c2ccc(-c3ccc(Br)c(Cl)c3)s2)NC1=S (stereo not drawn)", "inhibition of growth at 30 µM": "0%"}
{"COMPOUND": "CCOC(=O)C(Cc1ccccc1)N1C(=O)/C(=C\\c2ccc(-c3ccc(Cl)c(Cl)c3)o2)NC1=S (stereo not drawn)", "inhibition of growth at 30 µM": "0%"}

### Prompt Tell me inhibition of growth at 30 µM reported for O=C(O)C(Cc1ccccc1)N1C(=O)/C(=C\c2ccc(-c3cccc(Cl)c3)o2)NC1=S (stereo not drawn)
### Response 10%

### Prompt Report inhibition of growth at 30 µM for O=C(O)C(Cc1ccccc1)N1C(=O)/C(=C\c2ccc(-c3ccc(Br)cc3)o2)NC1=S (stereo not drawn)
### Response 90%

### Prompt Note inhibition of growth at 30 µM for the compound shown: O=C(O)C(Cc1ccccc1)N1C(=O)/C(=C\c2ccc(-c3ccc(Br)cc3)s2)NC1=S (stereo not drawn)
### Response 90%

### Prompt Entry O=C(NS(=O)(=O)C(F)(F)F)C(Cc1ccccc1)N1C(=O)/C(=C\c2ccc(-c3ccc(Cl)c(Cl)c3)o2)NC1=S (stereo not drawn) needs its inhibition of growth at 30 µM filled in; supply it.
### Response 90%

### Prompt # return recorded inhibition of growth at 30 µM for entry O=C(O)C(Cc1ccccc1)N1C(=O)/C(=C\c2ccc(-c3ccc(I)cc3)o2)NC1=S (stereo not drawn)
### Response 90%

###

test: Clearance in CD1 mouse at 50 mg/kg, ip; type: ADME, organism-based; parameters: dose 50 mg/kg, route intraperitoneal; details: in vivo
QUANTITY: CL/F (mL/min/kg)
Value expressed in mL/min/kg; do not type the unit.

### Prompt Report CL/F, nothing else, for this molecule: "O=C([O-])[C@H](Cc1ccccc1)N1C(=O)/C(=C\c2ccc(-c3ccc(Cl)c(Cl)c3)o2)NC1=S.[Na+]"
### Response 1.67

###

experiment: Clearance in CD1 mouse at 50 mg/kg, ip bid; assay type: ADME, organism-based; set-up: dose 50 mg/kg, route intraperitoneal; conditions: in vivo
QUANTITY: CL/F
Provide the measurement as a number trailed by its unit.

### Prompt Entry "O=C([O-])[C@H](Cc1ccccc1)N1C(=O)/C(=C\c2ccc(-c3ccc(Cl)c(Cl)c3)o2)NC1=S.[Na+]" needs its CL/F filled in; supply it.
### Response 0.783 mL/min/kg

###

system: Bacillus anthracis; experiment: Antibacterial activity against Bacillus anthracis Sterne assessed as growth inhibition at 30 uM measured every 2 mins for 16 to 20 hrs by spectramax 96-well plate reader analysis; type: functional; details: read-out: GI
QUANTITY: inhibition of growth at 30 µM (%)
Expressed in %, but write only the number.

### Prompt Determine its reported inhibition of growth at 30 µM: O=C(O)C(Cc1ccccc1)N1C(=O)/C(=C\c2ccc(-c3ccc(Br)cc3)o2)NC1=S (centres undefined)
### Response 100

### Prompt Look up and report measured inhibition of growth at 30 µM for this entry: CS(=O)(=O)NC(=O)C(Cc1ccccc1)N1C(=O)/C(=C\c2ccc(-c3ccc(Cl)c(Cl)c3)o2)NC1=S (centres undefined)
### Response 90

### Prompt Provide only the value of recorded inhibition of growth at 30 µM for O=C(O)C(Cc1ccccc1)N1C(=O)/C(=C\c2ccc(-c3ccc(Cl)c(Cl)c3)o2)NC1=S (centres undefined)
### Response 110

### Prompt Report inhibition of growth at 30 µM, nothing else, for this compound: O=C(O)C(Cc1ccccc1)N1C(=O)/C(=C\c2ccc(-c3ccc(Cl)c(Cl)c3)s2)NC1=S (centres undefined)
### Response 90

### Prompt Look up inhibition of growth at 30 µM of O=C(O)C(Cc1ccccc1)N1C(=O)/C(=C\c2ccc(-c3ccc(F)cc3)s2)NC1=S (centres undefined) and report it.
### Response 100

### Prompt State, in one line, measured inhibition of growth at 30 µM of CCOC(=O)C(Cc1ccccc1)N1C(=O)/C(=C\c2ccc(-c3ccc(Cl)c(Cl)c3)o2)NC1=S (centres undefined)
### Response 0

###

test system: Staphylococcus aureus; assay: Antibacterial activity against methicillin-resistant Staphylococcus aureus assessed as growth inhibition at 3 uM measured every 2 mins for 16 to 20 hrs by spectramax 96-well plate reader analysis; assay type: functional; conditions: read-out: GI
QUANTITY: inhibition of growth at 3 µM (%)
Your answer should be a plain number; it is taken to be in %.

Some compounds with known inhibition of growth at 3 µM results, for comparison:
{"COMPOUND": "O=C(O)C(Cc1ccccc1)N1C(=O)/C(=C\\c2ccc(-c3ccc(Br)c(Cl)c3)o2)NC1=S (stereo not drawn)", "QUANTITY": "inhibition of growth at 3 µM", "RECORDED_NUMBER": 20}
{"COMPOUND": "O=C(O)C(Cc1ccccc1)N1C(=O)/C(=C\\c2ccc(-c3ccc(F)cc3)s2)NC1=S (stereo not drawn)", "QUANTITY": "inhibition of growth at 3 µM", "RECORDED_NUMBER": 20}

Proceed to the following item.
### Prompt Specify inhibition of growth at 3 µM for O=C(O)C(Cc1ccccc1)N1C(=O)/C(=C\c2ccc(-c3ccc(Cl)cc3)s2)NC1=S (stereo not drawn) and stop.
### Response 0

###

A collection of molecules and their measured inhibition of growth at 30 µM
tested on: Bacillus anthracis; assay: Antibacterial activity against Bacillus anthracis Sterne assessed as growth inhibition at 30 uM measured every 2 mins for 16 to 20 hrs by spectramax 96-well plate reader analysis; assay type: functional; conditions: read-out: GI
# unit: % | format: bare number

Some molecules with known inhibition of growth at 30 µM results, for comparison:
{"MOLECULE": "CCC(C(=O)NS(C)(=O)=O)N1C(=O)/C(=C\\c2ccc(-c3ccc(Cl)c(Cl)c3)o2)NC1=S (configuration not stated)", "inhibition of growth at 30 µM (%)": 20}
{"MOLECULE": "O=C(O)C(Cc1ccccc1)N1C(=O)/C(=C\\c2ccc(-c3ccc(Cl)cc3)s2)NC1=S (configuration not stated)", "inhibition of growth at 30 µM (%)": 100}
{"MOLECULE": "O=C(O)C(Cc1ccccc1)N1C(=O)/C(=C\\c2ccc(-c3ccc(I)cc3)o2)NC1=S (configuration not stated)", "inhibition of growth at 30 µM (%)": 100}
{"MOLECULE": "O=C(O)C(Cc1ccccc1)N1C(=O)/C(=C\\c2ccc(-c3cccc(Cl)c3)o2)NC1=S (configuration not stated)", "inhibition of growth at 30 µM (%)": 90}
{"MOLECULE": "COc1ccc(-c2ccc(/C=C3/NC(=S)N(C(Cc4ccccc4)C(=O)O)C3=O)o2)cc1Cl (configuration not stated)", "inhibition of growth at 30 µM (%)": 100}

### Prompt Identify the reported inhibition of growth at 30 µM for the following entry. O=C(O)C(Cc1ccccc1)N1C(=O)/C(=C\c2ccc(-c3ccc(Br)cc3)s2)NC1=S (configuration not stated)
### Response 100

### Prompt Tell us which inhibition of growth at 30 µM value is on record for O=C(O)C(Cc1ccccc1)N1C(=O)/C(=C\c2ccc(-c3ccc(Br)c(Cl)c3)s2)NC1=S (configuration not stated)
### Response 90

###

test system: Staphylococcus aureus; assay: Antibacterial activity against methicillin-resistant Staphylococcus aureus assessed as growth inhibition at 3 uM measured every 2 mins for 16 to 20 hrs by spectramax 96-well plate reader analysis; type: functional; conditions: read-out: GI
QUANTITY: inhibition of growth at 3 µM (%)
Give the number; % is assumed, so skip it.

Recorded results for 3 compounds are shown here.
{"COMPOUND": "CCC(C(=O)O)N1C(=O)/C(=C\\c2ccc(-c3ccc(Cl)c(Cl)c3)o2)NC1=S (stereo not drawn)", "TGT": "Staphylococcus aureus", "inhibition of growth at 3 µM / %": 0}
{"COMPOUND": "COc1ccc(-c2ccc(/C=C3/NC(=S)N(C(Cc4ccccc4)C(=O)O)C3=O)o2)cc1Cl (stereo not drawn)", "TGT": "Staphylococcus aureus", "inhibition of growth at 3 µM / %": 10}
{"COMPOUND": "O=C(O)C(Cc1ccccc1)N1C(=O)/C(=C\\c2ccc(-c3cccc(Cl)c3)o2)NC1=S (stereo not drawn)", "TGT": "Staphylococcus aureus", "inhibition of growth at 3 µM / %": 0}

### Prompt Look up and report measured inhibition of growth at 3 µM for this entry: CS(=O)(=O)NC(=O)C(Cc1ccccc1)N1C(=O)/C(=C\c2ccc(-c3ccc(Cl)c(Cl)c3)o2)NC1=S (stereo not drawn)
### Response 0

### Prompt Provide one value: measured inhibition of growth at 3 µM of O=C(NS(=O)(=O)C(F)(F)F)C(Cc1ccccc1)N1C(=O)/C(=C\c2ccc(-c3ccc(Cl)c(Cl)c3)o2)NC1=S (stereo not drawn)
### Response 0
